- PROCEDURE_TEXT: solvent given as SMILES
- SETUP_CONDITIONS: in CN(C)C=O
READOUT_NAME: absorption maximum (nm)
Numbers only, in nm.

CC(C)(C)c1ccc2c(c1)[nH]c1c3[nH]c4cc(C(C)(C)C)ccc4c3c3nsnc3c21    412
O=C1NC(=O)c2c1c1c3ccccc3[nH]c1c1[nH]c3ccccc3c21    409

Let us examine a further case.
Enquiry: // query absorption maximum value for entry CCn1c2ccccc2c2cc(C#Cc3cc(C#Cc4ccc5c(c4)c4ccccc4n5CC)nc(C#N)n3)ccc21
Return: 411

* * *

- PROCEDURE_TEXT: solvent given as SMILES
- SETUP_CONDITIONS: in CCOC(C)=O
Would you kindly list absorption maximum for each of these compounds?
Just the number plus its unit, please.

CCn1c2ccccc2c2cc(-c3cc(-c4ccc5c(c4)c4ccccc4n5CC)nc(N4CCCCC4)n3)ccc21    368 nm
c1ccc2nc3cccc(-c4ccc(-n5c6ccccc6c6ccccc65)cc4)c3cc2c1    359 nm

# next compound below
Enquiry: Requested field: absorption maximum. Item: Cc1cc(O)c(C(C)C)cc1/N=C/c1ccc(O)cc1
Return: 340 nm

* * *

- PROCEDURE_TEXT: solvent given as SMILES
- SETUP_CONDITIONS: in CO
Could you please report measured absorption maximum for the items listed next?
Give bare numbers, in nm.

N#CC(C#N)=C(/C=C/c1ccc(N(c2ccccc2)c2ccccc2)cc1)c1ccc2c3c(cccc13)CC2    490
CC1=[N+]2C(=C(c3ccc(N4CCOCC4)cc3)c3ccc(C)n3[B-]2(F)F)C=C1    505
CCc1c(C)c2n(c1C)[B-](F)(F)[N+]1=C(c3ccc[nH]3)c3ccccc3C1=C2C    599
CC1(C)C(/C=C/C2=C(Oc3ccc(CCN=C=S)cc3Br)C(=C/C=C3/N(CCCS(=O)(=O)[O-])c4ccccc4C3(C)C)/CCC2)=[N+](CCCS(=O)(=O)[O-])c2ccccc21    768
N#CSc1ccc2n1[B-](F)(F)[N+]1=C(N3CCOCC3)C=CC1=C2c1ccccc1    458
CCC1=C(C)C(=O)n2c1cc1c(C)cc(C)n1c2=O    420
CCOC(=O)C(C(=O)OCC)C1=[N+]2C(=C(c3ccc(C)cc3)c3ccc(C(C(=O)OCC)C(=O)OCC)n3[B-]2(F)F)C=C1    509
CCOC(=O)CCCCCn1c2ccc(F)cc2c(=O)c2cc3c(cc21)c(=O)c1cc(F)ccc1n3CCCCCC(=O)OCC    540
COc1ccc(N2c3cc(OC)ccc3N=c3cc4c(cc32)=Nc2cc(C(C)(C)C)cc(C(C)(C)C)c2O4)cc1    558
CC/C=C/C=C/C=C/C=C/CCCCCCCC(=O)O    313

Count: 3. Required value per item: absorption maximum.
1. C/C(=C\c1ccccc1)c1nc2ccccc2o1
2. COc1ccc(-c2cc(B(c3c(C)cc(C)cc3C)c3c(C)cc(C)cc3C)c(-c3sc(-c4ccc(OC)cc4)cc3P(=O)(c3ccccc3)c3ccccc3)s2)cc1
3. CN1/C(=C/C=C(/C=C/C2=[N+](C)c3ccccc3C2(C)C)c2ccccc2)C(C)(C)c2ccccc21

Return:
315
402
637

Can you give me absorption maximum for all of these, one by one?
1. c1ccc(N(c2ccccc2)c2ccc(-c3ncc(-c4ccc(-c5ccc(-c6cnc(-c7ccc(N(c8ccccc8)c8ccccc8)cc7)s6)s5)s4)s3)cc2)cc1
2. N#CC(C#N)=Cc1cn(-c2ccccc2)nc1-c1ccccc1

Return:
425
351

Dear colleague, could you send me absorption maximum for each of the items below? Thanks.
1. F[B-]1(F)n2c(nc3c4ccccc4c4ccccc4c32)-c2cccc[n+]21
2. CCCCCC(=O)c1c2c(c(C(=O)CCCCC)c3c1OC1(CCCC1)O3)OC1(CCCC1)O2
3. O=CN1N=C(c2ccc(Br)cc2)C[C@@H]1c1ccccc1
4. COC(=O)C[C@H](Cc1c[nH]c2ccccc12)NC(=O)[C@H](CC(=O)N[C@@H](CC1=CCc2ccccc21)C(=O)OC)NC(=O)OC(C)(C)C
5. CN(C)c1ccc(-c2nc(C#N)c(C#N)n2C)cc1

Return:
404
452
298
280
309

* * *

- PROCEDURE_TEXT: solvent given as SMILES
- SETUP_CONDITIONS: in Cc1ccccc1
Record form. Attribute: absorption maximum. Fill in for each entry.
Numbers only, in nm.

CN(C)c1ccc(C2=Nc3sc4cc(C(F)(F)F)ccc4[n+]3[B-](F)(F)O2)cc1    428

// batch mode: one absorption maximum value per listed entry
1. Oc1ccc2ccccc2c1C1Nc2cccc3cccc(c23)N1
2. COc1ccc(C2=C(Br)C(c3ccccc3)=[N+]3C2=Nc2c(-c4ccc(OC)cc4)c(Br)c(-c4ccccc4)n2[B-]3(F)F)cc1

Return:
[337, 654]

For each of the molecules below, state absorption maximum.
1. Cc1ccccc1/C(C#N)=C/c1ccc(N(C)C)cc1
2. Oc1ccccc1-c1nc2c3ccccc3c3ccccc3c2n1-c1ccccc1
3. Cn1c(=O)c(/N=N/c2cc(S(=O)(=O)O)ccc2S(=O)(=O)O)c(O)c2ccccc21
4. C(#Cc1nc2ccccc2s1)c1ccc(N(c2ccccc2)c2ccccc2)cc1

Return:
1. 366
2. 335
3. 430
4. 388

For every record below, what is its absorption maximum?
1. CC(C)(C)c1ccc2c(c1)c1cc(C(C)(C)C)cc3c1n2-c1cc(-c2cccc(F)c2)cc2c1B3c1cc(C(C)(C)C)cc3c4cc(C(C)(C)C)ccc4n-2c13
2. COc1ccc2c(c1)sc1[n+]2[B-](F)(F)OC(c2ccc(N(C)C)cc2)=N1
3. c1ccc(-n2c(-c3ccc(-c4ccc(-c5ccc(-c6nc7c8ccccc8c8ccccc8c7n6-c6ccccc6)cc5)cc4)cc3)nc3ccccc32)cc1
4. CCCCN1C(=O)C(=CC=C2N(CCCC)c3ccccc3N2CCCC)C(=O)N(CCCC)C1=S
5. N#CC(C#N)=C(/C=C/c1ccc(N(c2ccccc2)c2ccccc2)cc1)c1ccc2c3c(cccc13)CC2
6. CC1(C)c2ccccc2N(c2ccc3c(c2)c2ccccc2n2c4ccccc4nc32)c2ccccc21
7. Cc1cc(C)c(B(c2ccc(C#Cc3cc4ccc5cc(C#Cc6ccc(B(c7c(C)cc(C)cc7C)c7c(C)cc(C)cc7C)cc6)cc6ccc(c3)c4c56)cc2)c2c(C)cc(C)cc2C)c(C)c1

Return:
1. 467.1
2. 427
3. 345
4. 468
5. 493
6. 376
7. 414

* * *

- PROCEDURE_TEXT: solvent given as SMILES
- SETUP_CONDITIONS: in CC#N
Provide the recorded absorption maximum for the entries that follow.
Answers are plain numbers, in nm.

A selection of reference data follows.
N#C/C(=N/Nc1ccc(C#N)cc1)c1nc(-c2ccccc2)cs1    396
Oc1ccccc1/C=N/c1cc2nc3ccccc3nc2cc1/N=C/c1ccccc1O    403

Enquiry: Would you kindly share the measured absorption maximum for CC(C)(C)c1cc2ccc3cccc4c3c2c(c1)c1nc2c3cc(C(C)(C)C)cc5ccc6cccc(c(=O)n2c41)c6c53 ?
Return: 389

* * *

Would you kindly list absorption maximum for each of these molecules?
- PROCEDURE_TEXT: solvent given as SMILES
- SETUP_CONDITIONS: in C1CCCCC1
One number for each entry, in nm.

CN(CC(O)c1cccc(O)c1)c1ccc([N+](=O)[O-])c(C2CC(c3cccc4ccccc34)=NN2c2ccccc2)c1 (stereo not given)    400
Cc1ccc(N(c2ccc(C)cc2)c2ccc3c4cccc5c(N(c6ccc(C)cc6)c6ccc(C)cc6)ccc(c6cccc2c63)c54)cc1    506
c1cc2ccc1CCCc1cc3c(cc1CCCc1ccc(c4nsnc14)CCC3)CCC2    402
CC(C)[Si]1(C(C)C)c2cc(C=O)ccc2-c2ccc(N(c3ccccc3)c3ccccc3)cc21    403

Enquiry: Which absorption maximum is listed for CCCC1(CCC)c2cc(-c3ccc(-c4ccc(OC)cc4)o3)ccc2-c2ccc(-c3ccc(-c4ccc(OC)cc4)o3)cc21 ?
Return: 410
